In this section we review reported protein stability index values for a set of variants.
B1: FBXO3 (parent)
chain: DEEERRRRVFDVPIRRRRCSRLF

variants of: B1; test: protein stability index of a GFP-peptide fusion (GPS, HEK-293T) (PSI 1-6); higher = more stable; conditions: c terminus: native;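 note: lentivirally expressed fusions sorted by FACS into six bins by GFP to DsRed ratio, PSI derived from sequencing read proportions per bin multiplied by bin number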
Please reply with the number alone, leaving off any unit.

Solved cases (4 shown):
- E4R: 2.9
- D1E: 3.14
- L22R: 3.97
- S20N: 2.61

// protein stability index lookup, variant = P13Y , result: 2.8

Form field protein stability index, entry D1L : 1.97

Summary for this variant, C19F : protein stability index is 3.76

This collection of values is drawn from the supplement of paper PMC10567573.
